Recorded values, source paper PMC10177692.

target: topoisomerase IIα (Homo sapiens); construct: it decreases the concentration of topoisomerase iIα in MCF-7 cell line to 1.043 ± 0.10 ng/ml; endogenous in cells; host or cells: MCF-7; test: Topoisomerase IIα inhibitory activity (ELISA kit); type: cell-based; settings: MCF-7 cell line, compounds at their IC50, compared to control
Sequence (P11388 whole entry): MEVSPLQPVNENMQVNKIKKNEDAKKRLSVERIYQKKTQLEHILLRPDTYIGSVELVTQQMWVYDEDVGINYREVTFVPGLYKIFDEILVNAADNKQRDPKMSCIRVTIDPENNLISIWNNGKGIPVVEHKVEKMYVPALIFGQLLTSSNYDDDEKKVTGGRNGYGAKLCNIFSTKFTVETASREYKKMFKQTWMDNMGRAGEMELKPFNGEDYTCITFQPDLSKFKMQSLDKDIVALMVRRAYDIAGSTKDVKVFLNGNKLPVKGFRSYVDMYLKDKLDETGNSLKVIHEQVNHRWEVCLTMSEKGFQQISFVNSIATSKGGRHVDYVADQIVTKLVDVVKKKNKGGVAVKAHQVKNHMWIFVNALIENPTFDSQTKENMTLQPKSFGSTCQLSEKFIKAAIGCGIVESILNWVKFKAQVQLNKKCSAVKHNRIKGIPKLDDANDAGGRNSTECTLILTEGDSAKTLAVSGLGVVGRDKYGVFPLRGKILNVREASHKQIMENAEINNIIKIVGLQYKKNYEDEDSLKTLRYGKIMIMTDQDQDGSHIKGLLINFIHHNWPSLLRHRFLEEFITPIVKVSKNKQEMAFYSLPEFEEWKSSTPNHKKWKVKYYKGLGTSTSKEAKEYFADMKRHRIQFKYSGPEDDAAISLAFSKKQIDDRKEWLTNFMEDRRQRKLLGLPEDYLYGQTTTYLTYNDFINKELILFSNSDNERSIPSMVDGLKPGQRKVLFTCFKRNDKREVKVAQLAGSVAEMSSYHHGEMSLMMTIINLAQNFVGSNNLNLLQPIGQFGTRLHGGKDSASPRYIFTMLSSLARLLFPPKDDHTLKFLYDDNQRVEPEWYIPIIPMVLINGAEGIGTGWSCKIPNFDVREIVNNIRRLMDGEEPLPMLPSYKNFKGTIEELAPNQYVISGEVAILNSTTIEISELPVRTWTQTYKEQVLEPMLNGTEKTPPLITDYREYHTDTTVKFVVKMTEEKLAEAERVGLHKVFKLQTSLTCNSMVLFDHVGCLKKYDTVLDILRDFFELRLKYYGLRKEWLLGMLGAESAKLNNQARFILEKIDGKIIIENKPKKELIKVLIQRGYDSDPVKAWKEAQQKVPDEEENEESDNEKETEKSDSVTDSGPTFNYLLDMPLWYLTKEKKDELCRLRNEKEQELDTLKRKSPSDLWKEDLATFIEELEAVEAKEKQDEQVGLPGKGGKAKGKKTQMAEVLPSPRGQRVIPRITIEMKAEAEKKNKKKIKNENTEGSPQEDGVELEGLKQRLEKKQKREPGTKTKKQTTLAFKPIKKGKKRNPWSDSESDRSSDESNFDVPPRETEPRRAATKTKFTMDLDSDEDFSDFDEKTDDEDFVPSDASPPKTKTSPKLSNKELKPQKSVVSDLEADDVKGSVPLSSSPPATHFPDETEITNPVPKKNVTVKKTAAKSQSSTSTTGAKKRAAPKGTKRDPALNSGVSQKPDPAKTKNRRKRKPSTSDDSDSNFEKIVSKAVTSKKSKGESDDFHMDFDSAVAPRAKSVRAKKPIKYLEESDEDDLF
PROPERTY NAME: % inhibition of topoisomerase IIα activity (%)
Just the number in %, nothing appended.

COMPOUND: N#Cc1c(-c2ccc([N+](=O)[O-])cc2)nc2sc3c(n2c1=O)C(=O)c1ccccc1C3=O [Compound 6i]
OBSERVED VALUE: 71.50

Task: Reported % inhibition of topoisomerase IIα activity for COc1ccc(-c2nc3sc4c(n3c(=O)c2C#N)C(=O)c2ccccc2C4=O)cc1OC [Compound 6c] : what is it?
Result: 11.30

Task: Follow-up item: COc1ccc(-c2nc3sc4c(n3c(=O)c2C#N)C(=O)c2ccccc2C4=O)cc1 [Compound 6a]
Result: 35.81

Task: Same lookup for COc1cccc2c1C(=O)c1c(O)c3c(c(O)c1C2=O)C[C@@](O)(C(=O)CO)C[C@@H]3O[C@H]1C[C@H](N)[C@H](O)[C@H](C)O1 [Dox, Doxorubicin, reference compound] , please.
Result: 65.92

###

system: A549; assay: MTT anti-proliferative assay; assay type: cell-based, human; conditions: Homo sapiens, A549; MTT, 24 h, mean ± SE of three experiments; read-out: IC50 (µM) ± S.E. A549
PROPERTY NAME: IC50 (µM)
A number alone suffices; assume µM.

MOLECULE: N#Cc1c(-c2ccc(Br)cc2)nc2sc3c(n2c1=O)C(=O)c1ccccc1C3=O
TARGET OF ASSAY: A549
IC50 / µM: 3.25
//
MOLECULE: N#Cc1c(-c2ccccc2)nc2sc3c(n2c1=O)C(=O)c1ccccc1C3=O
TARGET OF ASSAY: A549
IC50 / µM: 42.2
//
MOLECULE: COc1cccc2c1C(=O)c1c(O)c3c(c(O)c1C2=O)C[C@@](O)(C(=O)CO)C[C@@H]3O[C@H]1C[C@H](N)[C@H](O)[C@H](C)O1 [Dox, Doxorubicin, reference compound]
TARGET OF ASSAY: A549
IC50 / µM: 4.95
//
MOLECULE: COc1ccc(-c2nc3sc4c(n3c(=O)c2C#N)C(=O)c2ccccc2C4=O)cc1
TARGET OF ASSAY: A549
IC50 / µM: 2.81
//
MOLECULE: COc1cc(-c2nc3sc4c(n3c(=O)c2C#N)C(=O)c2ccccc2C4=O)cc(OC)c1OC
TARGET OF ASSAY: A549
IC50 / µM: 38.3
//
MOLECULE: C#Cc1cccc(Nc2ncnc3cc(OCCOC)c(OCCOC)cc23)c1 [Erlotinib, erlotinib, reference compound]
TARGET OF ASSAY: A549
IC50 / µM: 5.19
//
MOLECULE: N#Cc1c(-c2ccc(Cl)cc2)nc2sc3c(n2c1=O)C(=O)c1ccccc1C3=O
TARGET OF ASSAY: A549
IC50 / µM: 5.72
//
MOLECULE: CN(C)c1ccc(-c2nc3sc4c(n3c(=O)c2C#N)C(=O)c2ccccc2C4=O)cc1
TARGET OF ASSAY: A549
IC50 / µM: 21.2

Task: Give its IC50 value. Item: "N#Cc1c(-c2ccc(F)cc2)nc2sc3c(n2c1=O)C(=O)c1ccccc1C3=O"
Result: 4.2

Task: Try this molecule next: "N#Cc1c(-c2ccc([N+](=O)[O-])cc2)nc2sc3c(n2c1=O)C(=O)c1ccccc1C3=O"
Result: 1.55

Task: # iterate: "COc1ccc(-c2nc3sc4c(n3c(=O)c2C#N)C(=O)c2ccccc2C4=O)cc1OC"
Result: 3.65

###

tested on: caspase-9; assay: Caspase-9 ELISA in MCF-7 cells; format: cell-based, human; settings: MCF-7, at IC50; control 4.51 ± 0.29
PROPERTY NAME: Caspase 9 Conc.(pg/ml) (pg/mL)
State just the number; it will be interpreted in pg/mL.

Worked set:
COMPOUND: N#Cc1c(-c2ccc([N+](=O)[O-])cc2)nc2sc3c(n2c1=O)C(=O)c1ccccc1C3=O [Compound 6i]
READOUT UNITS: pg/mL
OBSERVED VALUE: 32.29
//
COMPOUND: COc1ccc(-c2nc3sc4c(n3c(=O)c2C#N)C(=O)c2ccccc2C4=O)cc1OC [Compound 6c]
READOUT UNITS: pg/mL
OBSERVED VALUE: 13.68
//
COMPOUND: COc1cccc2c1C(=O)c1c(O)c3c(c(O)c1C2=O)C[C@@](O)(C(=O)CO)C[C@@H]3O[C@H]1C[C@H](N)[C@H](O)[C@H](C)O1 [Dox, Doxorubicin, reference compound]
READOUT UNITS: pg/mL
OBSERVED VALUE: 29.48

Field: next compound
Task: Item: COc1ccc(-c2nc3sc4c(n3c(=O)c2C#N)C(=O)c2ccccc2C4=O)cc1 [Compound 6a] Test system: caspase-9 Read-out: Caspase 9 Conc.(pg/ml) Value: ?
Result: 21.17

###

Documented log10 of IC50 across a set of compounds
tested on: HCT-116; assay: MTT anti-proliferative assay; type: cell-based, human; details: Homo sapiens, HCT-116; MTT, 24 h, mean ± SE of three experiments; read-out: IC50 (µM) ± S.E. HCT-116
Heads up, the numbers here are log10 of IC50 in µM units.

Worked cases, log10 of IC50 given:
COMPOUND: C#Cc1cccc(Nc2ncnc3cc(OCCOC)c(OCCOC)cc23)c1 [Erlotinib, erlotinib, reference compound]
OBSERVED VALUE: 0.94
--
COMPOUND: N#Cc1c(-c2ccc(Cl)cc2)nc2sc3c(n2c1=O)C(=O)c1ccccc1C3=O
OBSERVED VALUE: 0.99
--
COMPOUND: COc1ccc(-c2nc3sc4c(n3c(=O)c2C#N)C(=O)c2ccccc2C4=O)cc1
OBSERVED VALUE: 0.55
--
COMPOUND: N#Cc1c(-c2ccc([N+](=O)[O-])cc2)nc2sc3c(n2c1=O)C(=O)c1ccccc1C3=O
OBSERVED VALUE: 0.36
--
COMPOUND: N#Cc1c(-c2ccc(Br)cc2)nc2sc3c(n2c1=O)C(=O)c1ccccc1C3=O
OBSERVED VALUE: 1.07

Task: Look up log10 of IC50: "CN(C)c1ccc(-c2nc3sc4c(n3c(=O)c2C#N)C(=O)c2ccccc2C4=O)cc1"
Result: 1.75

Task: What do you get for "N#Cc1c(-c2ccc(F)cc2)nc2sc3c(n2c1=O)C(=O)c1ccccc1C3=O" ?
Result: 1.06

Task: Repeat for the following compound: COc1cccc2c1C(=O)c1c(O)c3c(c(O)c1C2=O)C[C@@](O)(C(=O)CO)C[C@@H]3O[C@H]1C[C@H](N)[C@H](O)[C@H](C)O1 [Dox, Doxorubicin, reference compound]
Result: 0.83

Task: What do you get for "N#Cc1c(-c2ccccc2)nc2sc3c(n2c1=O)C(=O)c1ccccc1C3=O" ?
Result: 0.95

Task: What about this compound? "COc1ccc(-c2nc3sc4c(n3c(=O)c2C#N)C(=O)c2ccccc2C4=O)cc1OC"
Result: 0.56

Task: Also, "COc1cc(-c2nc3sc4c(n3c(=O)c2C#N)C(=O)c2ccccc2C4=O)cc(OC)c1OC" please.
Result: 1.43

###

system: MCF-7; assay: MTT anti-proliferative assay; type: cell-based, human; conditions: Homo sapiens, MCF7; MCF-7; concentration used for treatment; read-out: IC50 µM (Table 4)
PROPERTY NAME: IC50 (µM)
The response must be a number in µM with no trailing unit.

SMILES: N#Cc1c(-c2ccc([N+](=O)[O-])cc2)nc2sc3c(n2c1=O)C(=O)c1ccccc1C3=O
READOUT UNITS: µM
OBSERVED VALUE: 1.79

Task: Quick one: IC50 for "COc1ccc(-c2nc3sc4c(n3c(=O)c2C#N)C(=O)c2ccccc2C4=O)cc1" ?
Result: 3.34

###

test system: MCF-7; assay: MTT anti-proliferative assay; assay type: cell-based, human; details: Homo sapiens, MCF7; MCF-7; concentration used for treatment; read-out: IC50 (Table 3)
PROPERTY NAME: pIC50
Quick note: pIC50 values are minus log10 of concentrations in mol/L.

Consider the reported pIC50 for these compounds:
COMPOUND: N#Cc1c(-c2ccc([N+](=O)[O-])cc2)nc2sc3c(n2c1=O)C(=O)c1ccccc1C3=O
OBSERVED VALUE: 5.75
//
COMPOUND: COc1ccc(-c2nc3sc4c(n3c(=O)c2C#N)C(=O)c2ccccc2C4=O)cc1
OBSERVED VALUE: 5.48

Task: Quick one: pIC50 of "COc1ccc(-c2nc3sc4c(n3c(=O)c2C#N)C(=O)c2ccccc2C4=O)cc1OC" ?
Result: 5.35

Task: Note, next up: COc1cccc2c1C(=O)c1c(O)c3c(c(O)c1C2=O)C[C@@](O)(C(=O)CO)C[C@@H]3O[C@H]1C[C@H](N)[C@H](O)[C@H](C)O1 [Dox, Doxorubicin, reference compound]
Result: 5.25
